// data source = patent US20260265184A1

measurementDescription: Solvent solubility evaluation of the degradable cross-linking agents
Format: physicochemical
assayContext: 0.5 mL solvent added to 2 mg; visual; room temperature, then heat gun
metric: Solvent solubility, Methylisobutyl ketone

molecule="C=CCNC(=O)NNC(=O)CCCCCCCCC(=O)NNC(=O)NCC=C [Formula (B)]" resultnumber=0
molecule="C=C(C)C(=O)OCCNC(=O)NNC(=O)c1cc(O)cc(O)c1 [Formula (I)]" resultnumber=0
molecule="C=CCOC(=O)NNC(=O)NCCCCCCNC(=O)NNC(=O)OCC=C [Formula (C)]" resultnumber=0
molecule="C=CCOC(=O)NNC(=O)CCCO [Formula (G)]" resultnumber=2
molecule="O=C(CCS)NNC(=O)NCCCCCCNC(=O)N(CCCCCCNC(=O)NNC(=O)CCS)C(=O)NCCCCCCNC(=O)NNC(=O)CCS [Formula (J)]" resultnumber=0
molecule="C=CCOC(=O)NNC(=O)CCCCCCCCC(=O)NNC(=O)OCC=C [Formula (D)]" resultnumber=2
molecule="C=CCCC(=O)NNC(=O)CCCCCCCCC(=O)NNC(=O)OCC=C [Formula (A), reference compound]" resultnumber=0
molecule="C=CCOC(=O)NNC(=O)CCC(NC(=O)NNC(=O)CCCC(=O)NNC(=O)NC(CCC(=O)NNC(=O)OCC=C)C(=O)NNC(=O)OCC=C)C(=O)NNC(=O)OCC=C (stereo not drawn) [Formula (L)]" resultnumber=1
molecule="O=C(CCCCCOC(=O)NNC(=O)OCCO)NNC(=O)c1cccc(C(=O)NNC(=O)CCCCCOC(=O)NNC(=O)OCCO)c1 [Formula (M)]" resultnumber=0

* * *

Solvent solubility, Isopropanol values for the molecules below.
measurementDescription: Solvent solubility evaluation of the degradable cross-linking agents
Format: physicochemical
assayContext: 0.5 mL solvent added to 2 mg; visual; room temperature, then heat gun
metric: Solvent solubility, Isopropanol

molecule="C=CCCC(=O)NNC(=O)CCCCCCCCC(=O)NNC(=O)OCC=C [Formula (A), reference compound]" resultnumber=0
molecule=C=CCOC(=O)NNC(=O)NCCCCCCNC(=O)NNC(=O)OCC=C resultnumber=1
molecule="C=CCOC(=O)NNC(=O)CCC(NC(=O)NNC(=O)CCCC(=O)NNC(=O)NC(CCC(=O)NNC(=O)OCC=C)C(=O)NNC(=O)OCC=C)C(=O)NNC(=O)OCC=C (stereo not shown)" resultnumber=1
molecule=C=CCOC(=O)NNC(=O)CCCCCCCCC(=O)NNC(=O)OCC=C resultnumber=3

* * *

The entries below come with measured Solvent solubility, Propylene glycol monomethyl ether values attached.
measurementDescription: Solvent solubility evaluation of the degradable cross-linking agents
Type: physicochemical
assayContext: 0.5 mL solvent added to 2 mg; visual; room temperature, then heat gun
Protocol: The degree of dissolution was visually observed. When an undissolved portion remained at room temperature, the mixture was sufficiently heated with a heat gun and then visually observed again. […] Here, the degradable cross-linking agents in liquid form were evaluated for compatibility with the solvents.
metric: Solvent solubility, Propylene glycol monomethyl ether

compound=C=CCOC(=O)NNC(=O)CCCO result=3
compound=O=C(CCCCCOC(=O)NNC(=O)OCCO)NNC(=O)c1cccc(C(=O)NNC(=O)CCCCCOC(=O)NNC(=O)OCCO)c1 result=3
compound=C=CCNC(=O)NNC(=O)CCCCCCCCC(=O)NNC(=O)NCC=C result=0
compound="C=CCCC(=O)NNC(=O)CCCCCCCCC(=O)NNC(=O)OCC=C [Formula (A), reference compound]" result=0
compound=C=CCOC(=O)NNC(=O)NCCCCCCNC(=O)NNC(=O)OCC=C result=2
compound=C=C(C)C(=O)OCCNC(=O)NNC(=O)c1cc(O)cc(O)c1 result=0
compound="C=CCOC(=O)NNC(=O)CCC(NC(=O)NNC(=O)CCCC(=O)NNC(=O)NC(CCC(=O)NNC(=O)OCC=C)C(=O)NNC(=O)OCC=C)C(=O)NNC(=O)OCC=C (stereo not drawn)" result=3
compound=O=C(CCS)NNC(=O)NCCCCCCNC(=O)N(CCCCCCNC(=O)NNC(=O)CCS)C(=O)NCCCCCCNC(=O)NNC(=O)CCS result=0
compound=C=CCOC(=O)NNC(=O)CCCCCCCCC(=O)NNC(=O)OCC=C result=3

* * *

measurementDescription: Solvent solubility evaluation of the degradable cross-linking agents
Type: physicochemical
assayContext: 0.5 mL solvent added to 2 mg; visual; room temperature, then heat gun
Property: Solvent solubility, Methanol; scope: individual molecules
metric: Solvent solubility, Methanol

molecule=O=C(CCCCCOC(=O)NNC(=O)OCCO)NNC(=O)c1cccc(C(=O)NNC(=O)CCCCCOC(=O)NNC(=O)OCCO)c1 metric="Solvent solubility, Methanol" resultnumber=3
molecule="C=CCCC(=O)NNC(=O)CCCCCCCCC(=O)NNC(=O)OCC=C [Formula (A), reference compound]" metric="Solvent solubility, Methanol" resultnumber=0
molecule=C=CCNC(=O)NNC(=O)CCCCCCCCC(=O)NNC(=O)NCC=C metric="Solvent solubility, Methanol" resultnumber=2
molecule=C=CCOC(=O)NNC(=O)NCCCCCCNC(=O)NNC(=O)OCC=C metric="Solvent solubility, Methanol" resultnumber=2
molecule=C=C(C)C(=O)OCCNC(=O)NNC(=O)c1cc(O)cc(O)c1 metric="Solvent solubility, Methanol" resultnumber=3
molecule="C=CCOC(=O)NNC(=O)CCC(NC(=O)NNC(=O)CCCC(=O)NNC(=O)NC(CCC(=O)NNC(=O)OCC=C)C(=O)NNC(=O)OCC=C)C(=O)NNC(=O)OCC=C (stereo not drawn)" metric="Solvent solubility, Methanol" resultnumber=2
molecule=C=CCOC(=O)NNC(=O)CCCO metric="Solvent solubility, Methanol" resultnumber=3
molecule=O=C(CCS)NNC(=O)NCCCCCCNC(=O)N(CCCCCCNC(=O)NNC(=O)CCS)C(=O)NCCCCCCNC(=O)NNC(=O)CCS metric="Solvent solubility, Methanol" resultnumber=1
molecule=C=CCOC(=O)NNC(=O)CCCCCCCCC(=O)NNC(=O)OCC=C metric="Solvent solubility, Methanol" resultnumber=3

* * *

measurementDescription: Solvent solubility evaluation of the degradable cross-linking agents
Assay type: physicochemical
assayContext: 0.5 mL solvent added to 2 mg; visual; room temperature, then heat gun
Entries and their Solvent solubility, N-methylpyrrolidone
metric: Solvent solubility, N-methylpyrrolidone

molecule=C=CCOC(=O)NNC(=O)NCCCCCCNC(=O)NNC(=O)OCC=C resultnumber=3
molecule=O=C(CCCCCOC(=O)NNC(=O)OCCO)NNC(=O)c1cccc(C(=O)NNC(=O)CCCCCOC(=O)NNC(=O)OCCO)c1 resultnumber=3
molecule="C=CCCC(=O)NNC(=O)CCCCCCCCC(=O)NNC(=O)OCC=C [Formula (A), reference compound]" resultnumber=0
molecule=O=C(CCS)NNC(=O)NCCCCCCNC(=O)N(CCCCCCNC(=O)NNC(=O)CCS)C(=O)NCCCCCCNC(=O)NNC(=O)CCS resultnumber=1
molecule=C=C(C)C(=O)OCCNC(=O)NNC(=O)c1cc(O)cc(O)c1 resultnumber=3
